Tested on: P388 leukemia ip, CD2F1 mice, survival T/C
Procedure text: NCI In Vivo Anticancer Drug Screen. Data for tumor model P388 Leukemia (intraperitoneal) in CD2F1 (CDF1) mice
Conditions used: endpoint: median survival time; dose: 200.0 mg/kg/injection; schedule: Q01DX005 (ip); vehicle: Klucel (hydroxypropylcellulose) (HPC); higher = longer survival
Method: The antitumor activity of compounds was measured in mice bearing transplantable tumors. Survival or tumor size were measured and the results are expressed as the measurement made in the treated group (T) divided by the measurement made in the vehicle treated control group (C). The tumor model used in this assay is P388 Leukemia (intraperitoneal) in CD2F1 (CDF1) mice
Inconclusive results and toxic doses are left out. Square brackets hold non-standard residues; d marks the D form. Peptide text beside a SMILES is read from it. * marks the point of attachment. ξ: configuration not given here. Cbz = O=C(OCc1ccccc1)*; Nva = CCC[CH](N)C(=O)O; ξT = CC(O)C(N)C(=O)O
Listed here: items and their measured T/C.
Measurement kind: T/C

compound="CC(O)C(NC(=O)CNC(=O)CNC(=O)OCc1ccccc1)C(=O)O (stereo not drawn) (Cbz-Gly-Gly-[ξT]-OH)" observed_measurement="95 % of control"
compound=CSC(=S)N1CC(=O)N(C(=S)SC)CC1=O observed_measurement="86 % of control"
compound="CCCCCN(CCCCC)C(C)C(=O)c1ccc(Cl)cc1 (centres undefined)" observed_measurement="100 % of control"
compound="CC1c2ccccc2NC(=O)N1N1CCOCC1 (centres undefined)" observed_measurement="97 % of control"
compound="Cc1cc(Br)c(O)c(C(=NCC(C)N=C(c2ccccc2)c2cc(C)cc(Br)c2O)c2ccccc2)c1 (centres undefined)" observed_measurement="96 % of control"
compound=Nc1nnc(SCCCCCCCCCCSc2nnc(N)s2)s1 observed_measurement="89 % of control"
compound=COc1cc(Br)c(C2=C3c4cc(OC)c(OC)cc4CCN3C(=O)C2=O)cc1OC observed_measurement="90 % of control"
compound=Cc1ccc(S(=O)(=O)/C(=N\O)c2ccc(Cl)cc2)cc1 observed_measurement="95 % of control"
compound="CC(NC(=O)C(CO)NC(=O)OCc1ccccc1)C(=O)O (centres undefined)" observed_measurement="108 % of control"
compound="CC1=CC2(CC(C)(C)C1)N(c1ccccc1)C(=O)C2(c1ccccc1)c1ccccc1 (centres undefined)" observed_measurement="87 % of control"
compound="CCCC(NC(=O)OCc1ccccc1)C(=O)NC(CC(C)C)C(N)=O (centres undefined) (Cbz-[Nva]-Leu-NH2; configuration not given here)" observed_measurement="100 % of control"
compound=O=C([OH2+])C[N]1C(=O)C[NH][Ga]1[Cl].O=C([OH2+])C[N]1C(=O)C[NH][Ga]1[Cl] observed_measurement="98 % of control"
compound=COC(=O)NP1(=O)NCc2ccccc2CN1 observed_measurement="94 % of control"
compound=CC1(C)C(=O)c2cc(Cl)ccc2C1(C)C observed_measurement="97 % of control"
compound=COc1ccc2[nH]c3ccc4cc[n+](CCN5CCC(C6CCN(CC[n+]7ccc8ccc9[nH]c%10ccc(OC)cc%10c9c8c7)CC6)CC5)cc4c3c2c1 observed_measurement="112 % of control"
compound="Cc1ccc(N2CC=C(c3ccccc3)OP2(=O)N2CC2)cc1 (centres undefined)" observed_measurement="94 % of control"
compound="CCOC1NC(=O)C(OCC)NC1=O (centres undefined)" observed_measurement="97 % of control"
compound=Cc1cc(=O)oc2c(C)c3oc4ccncc4c3cc12 observed_measurement="107 % of control"
compound="COc1cccc(C(Cc2ccccc2)Nc2ccccc2)c1OC (centres undefined)" observed_measurement="88 % of control"
compound=CC1(C)C(=O)/C(=C/c2ccccc2N)Cc2ccccc21 observed_measurement="102 % of control"
compound=C=C(C)c1nc(N)nc(N2CCCCC2)n1 observed_measurement="117 % of control"
compound=Nc1ccc2snc3c2c1C(=O)c1ccccc1-3 observed_measurement="100 % of control"
compound="COc1ccc(CCN2C=CC(C#N)C(C(C)=O)=C2)cc1OC (centres undefined)" observed_measurement="90 % of control"
compound=Nc1ccc(S(=O)(=O)c2ccc(Nc3ccnc4cc(Cl)ccc34)cc2)cc1 observed_measurement="90 % of control"
